Give measured TGI for each item. Keep answers brief.
# Test system: BT-549 breast
# method_notes: NCI tumour cell line growth inhibition, 48 h
Where a SMILES comes first, the peptide text is derived from it. [ ]: non-standard residue; d: D form. The star is where a group is joined. Palmitoyl = CCCCCCCCCCCCCCCC(=O)*; Cbz = O=C(OCc1ccccc1)*; Aib = CC(C)(N)C(=O)O; OBn = c1ccc(CO*)cc1

c1ccc(C2=NOC(c3ccccc3)N2C23CC4CC(CC(C4)C2)C3)cc1 (stereo not given): > 10 µM
CCCCOCCOC1=C(Cl)C(=O)c2c(O)ccc(O)c2C1=O: 0.341 µM
Cc1cccc(NC2=C(Cl)C(=O)c3nc(C)ccc3C2=O)c1: 2.77 µM
COc1ccc(Cl)cc1NC(=O)c1ccc(NC2=C(Cl)C(=O)N(Cc3ccccc3)C2=O)cc1: > 100 µM
COc1ccc(/C=C\c2cc(OC)c(OC)c(OC)c2)cc1OCC(=O)O: > 100 µM
C[C@@H]1CC[C@H]2[C@H]1[C@H]1[C@@H](CC[C@]2(C)N=C=S)C1(C)C: 39.1 µM

Provide TGI values for the following items, in order.
1. COc1ccc(/C=N/NC(=O)c2ccc(O)c(CN(C)C)c2)cc1
2. CC(C)(C)N=C(N)NC#N
3. CCCCCCCCCCCCCCCC(=O)N1CCCC1C(=O)NCC(=O)NC(Cc1ccccc1)C(=O)N1CCCC1C(=O)NC(CO)C(=O)NC(Cc1ccc(O)cc1)C(=O)NC(CCCCN)C(=O)NC(CC(C)C)C(=O)NC(CCCN=C(N)N)C(=O)N1CCCC1C(=O)NCC(N)=O (stereo not given) (Palmitoyl-PGFPSYKLRPG-NH2; configuration not given here)
4. CCOc1c(OC)cc(-c2nc3n(n2)C(=O)C(CC)S3)cc1OC (stereo not given)
5. O=C(CC(=O)Nc1ccccc1)NNC(Sc1ccccc1)c1cc(N=Nc2ccc(Br)cc2)ccc1O (stereo not given)

Key:
1. > 100 µM
2. > 100 µM
3. 43.2 µM
4. > 10 µM
5. > 10 µM

Provide TGI values for the following items, in order.
1. C/C1=C\[C@H](C)C[C@H](C)OC(=O)[C@H](C)NC(=O)[C@@H](Cc2ccc(O)c(Br)c2)N(C)C(=O)[C@H](C)NC(=O)[C@@H](C)C1
2. CCOC(=O)c1c2cccccc-2nc1Nc1cccc2c(C)ccnc12

Key:
1. 4.12 µM
2. > 10 µM

Provide TGI values for the following items, in order.
1. COc1cc2c(cc1OCCCN1CCN(CCCOc3cc4c(cc3OC)C(=O)N3CC(F)(F)C[C@H]3C=N4)CC1)N=C[C@@H]1CC(F)(F)CN1C2=O
2. O=C(CN1C(=O)CC(c2ccccc2)(c2ccccc2)C1=O)N1CCN(CCO)CC1
3. COC(=O)c1c(C)cc(OC)c(C/C=C(\C)CCCc2coc(C=C(C)C)c2)c1OC
4. COc1ccc2c(=O)oc3c(OC)cc(CCN(C)C)c4c(=O)oc1c2c34
5. CNc1cc2oc(=O)cc(C)c2cc1C
6. Cn1ncc2c(NCc3ccccc3)ncnc21
7. CC(NC(=O)C(C)(C)NC(=O)C(CC(=O)OCc1ccccc1)NC(=O)OCc1ccccc1)C(N)=O (stereo not given) (Cbz-Asp(OBn)-[Aib]-Ala-NH2; configuration not given here)

Key:
1. 5.36 µM
2. > 100 µM
3. > 100 µM
4. 15.4 µM
5. > 100 µM
6. > 100 µM
7. > 100 µM

Provide TGI values for the following items, in order.
1. O=C1/C(=C/c2ccc(Cl)cc2)CCCc2ccccc21
2. [N-]=[N+]=CC(=O)OC(CCl)CCl

Key:
1. 47.3 µM
2. > 100 µM

Provide TGI values for the following items, in order.
1. CNCCCNc1ccnc2cc(Cl)ccc12
2. CO[C@@H]1CC[C@]2(C)OC[C@H](C)[C@@H]3C[C@@H](C)[C@@H](OC(C)=O)[C@@H]4[C@H]3[C@@H]2O[C@H]4C[C@@]1(C)O
3. O=[N+]([O-])c1cccnc1N=Nc1c(O)[nH]c2ccccc12

Key:
1: > 100 µM; 2: > 100 µM; 3: 25.4 µM

Provide TGI values for the following items, in order.
1. COc1cc(O)c2c(=O)c(OC)c(-c3ccc(OC)c(O)c3)oc2c1
2. COc1nc(=O)n(C2C=CC(=O)O2)cc1F (stereo not given)
3. CN(C)CCN1CCC(Cc2ccccc2)CC1
4. CNc1nncc2[nH]cnc12
5. O=C1c2cccc3cccc(c23)C(=O)N1CCCNCCCCNCCCNCCCN1C(=O)c2cccc3cccc(c23)C1=O
6. COc1cc(/C=C2\CCCCC3=C2N=C2SC(C)=CN2C3c2cc(OC)c(OC)c(OC)c2)cc(OC)c1OC (stereo not given)
7. O=c1[nH]c(-c2cccc(F)c2)cc2cc(F)ccc12

Key:
1: > 100 µM; 2: 24.1 µM; 3: > 80 µM; 4: > 100 µM; 5: 3.3 µM; 6: > 100 µM; 7: > 100 µM

Provide TGI values for the following items, in order.
1. CO/N=C(/C(=O)OC)c1ccccc1COc1ccccc1C(F)(F)F
2. O=C(O)c1cccc(S(=O)(=O)NN2C(=O)CSC2c2ccc(Cl)cc2Cl)c1 (stereo not given)

Key:
> 100 µM
> 100 µM

Provide TGI values for the following items, in order.
1. CNc1[nH]c(=S)nc2sc3c(c12)CCCC3
2. Clc1sc(Cl)c2c1[C@@H](Cl)C[C@@H]2Br
3. Cn1c2ccccc2c2c(=S)c3ccccc3ccc21
4. CCOC(=O)C(NC(=O)CC)(N1CCN(c2cc3c(cc2F)c(=O)c(C(=O)O)cn3C2CC2)CC1)C(F)(F)F (stereo not given)

Key:
1: > 75 µM; 2: > 100 µM; 3: > 100 µM; 4: > 100 µM

Provide TGI values for the following items, in order.
1. CCOC(=O)/C(C(C)=O)=C(\OC(C)=O)c1ccncc1C(=O)O
2. CN1CCN(Cc2cc3c(nn2)-c2ccccc2C3=O)CC1

Key:
1. > 100 µM
2. > 100 µM

====

# Test system: UO-31 renal
# method_notes: NCI tumour cell line growth inhibition, 48 h
property_label: TGI (µM)
Answers are plain numbers, in µM.

Example entries and their recorded answers appear below.
Oc1oc(C(=C2N=c3ccccc3=N2)c2ccc(Cl)cc2)c(O)c1-c1ccc(Cl)cc1: 8.08
O=C1N(Cc2ccccc2)C2CSCC2N1Cc1ccccc1 (configuration not stated): 93.5

// switching to the query compound
For reference, reported TGI for CN(C)CCNC(=O)Cc1ccccc1Nc1c(Cl)cccc1Cl stands at 25.6

====

# System: OVCAR-4 ovarian
# method_notes: NCI tumour cell line growth inhibition, 48 h
property_label: TGI

CNc1cc2oc(=O)cc(C)c2cc1C: > 100 µM
O=C(Nc1nc(-c2c[nH]c3ccccc23)cs1)c1n[nH]c(=O)c2ccccc12: > 100 µM
COc1ccc(N2C(=O)C3c4[nH]c5cc(C)ccc5c4C4CCC(C(C)(C)C)CC4C3C2=O)cc1 (stereo unspecified): > 10 µM

Provide TGI values for the following items, in order.
1. Cc1nc2c(N)ncnc2o1
2. CCN(C(=O)N[C@@H](C)C(=O)N[C@@H](Cc1ccccc1)C(=O)OC)c1ccccc1
3. Nc1c(C(=O)Nc2ccccn2)sc2nc3c(cc12)C(=O)CCC3
4. NC(N)=Nc1nc2ccccc2o1
5. COc1cc2c(cc1OCCCCCN1CCN(c3ncnc4ccccc34)CC1)N=CC1CCCN1C2=O (stereo unspecified)
6. N#CC(c1ccccc1)N(CCOCCOCCN(C(=O)c1ccccc1)C(C#N)c1ccccc1)C(=O)c1ccccc1 (stereo unspecified)
7. CN(C)CCN1CCC(Cc2ccccc2)CC1

Key:
> 100 µM
> 100 µM
> 100 µM
> 100 µM
2.28 µM
> 100 µM
> 80 µM

// returns TGI for O=C1C/C(Br)=C\c2ccccc2-c2ccccc21 with OVCAR-4 ovarian; value = 7.88 µM

====

Give measured TGI for each item. Keep answers brief.
# Tested on: CCRF-CEM leukemia
# method_notes: NCI tumour cell line growth inhibition, 48 h

Example entries and their recorded answers appear below.
O=C(O)c1ccc(CNCc2ccccc2)cc1: > 100 µM
c1ccc(C(C(=Nc2ccc(Cc3ccc(N=C(C(c4ccccc4)c4ccccc4)N4CC4)cc3)cc2)N2CC2)c2ccccc2)cc1: 49.8 µM
COC(=O)c1ccccc1CC1Cc2cccc(C)c2C1=O (stereo not given): > 100 µM
C[C@H](CCOc1cccc(CC(=O)O)c1)N(Cc1cccc(C(F)(F)F)c1Cl)CC(c1ccccc1)c1ccccc1: 20.1 µM
COC(=O)c1c(C)cc(OC)c(C/C=C(\C)CCCc2coc(C=C(C)C)c2)c1OC: > 100 µM
COc1cc(O)c2c(=O)c(OC)c(-c3ccc(OC)c(O)c3)oc2c1: > 100 µM
CCCCOCCOC1=C(Cl)C(=O)c2c(O)ccc(O)c2C1=O: 0.242 µM
CN(Cc1cnc2nc(N)nc(N)c2n1)c1ccc(C(=O)N[C@@H](CCS(=O)(=O)O)C(=O)O)cc1: > 100 µM

Provide TGI values for the following items, in order.
1. Nc1c(S(=O)(=O)c2ccc(Cl)cc2)c2nc3ccccc3nc2n2ccnc12
2. O=C(O)C(O)C(O)C(O)C(O)CO (stereo not given)
3. Cc1nc2c(Br)cc(Br)cc2c(=O)n1-c1nnc(-c2cccc(Cl)c2Cl)c(N)n1
4. O/N=C1\CCCCC1C(NO)c1ccccc1 (stereo not given)
5. C=C(C)CNCCN
6. C=C(CN(C)Cc1ccccc1)c1ccc(NC(=O)c2ccc(C(=C)CN(C)Cc3ccccc3)cc2)cc1
7. Cc1nc2sccn2c1-c1nc2sccn2c1/C=C1/C(=O)Nc2ccccc21

Key:
["> 100 µM", "> 100 µM", "> 100 µM", "> 100 µM", "> 100 µM", "> 100 µM", "> 100 µM"]
